Conditions: 298.15 K; 101.33 kPa; Liquid; Concentric cylinders viscometry
reported_endpoint: viscosity (mPa·s)
Numbers only; they are read as mPa·s.

Ask: Look up and report measured viscosity for this entry: CCCCCCCCCCCCCC[P+](CCCCCC)(CCCCCC)CCCCCC.CS(=O)(=O)[O-] [trihexyltetradecylphosphonium methanesulfonate]
Reply: 1379.4

Ask: Look up and report measured viscosity for this entry: CCCCCCCCCCCCCC[P+](CCCCCC)(CCCCCC)CCCCCC.N#C[N-]C#N [tetradecyl(trihexyl)phosphonium dicyanamide]
Reply: 438.57

Ask: Look up and report measured viscosity for this entry: CCCCCCCCCCCCCC[P+](CCCCCC)(CCCCCC)CCCCCC.[Cl-] [trihexyl(tetradecyl)phosphonium chloride]
Reply: 2729.1

---

Conditions: 363.15 K; 101.33 kPa; Liquid; Concentric cylinders viscometry
Tick Y if viscosity is 80 mPa·s or greater. Tick N if viscosity is less than 80 mPa·s.

Past entries and their recorded results:
>>> category("CCCCCCCCCC(=O)[O-].CCCCCCCCCCCCCC[P+](CCCCCC)(CCCCCC)CCCCCC [trihexyltetradecylphosphonium decanoate]")
"N"
>>> category("CCCCCCCCCCCCCC[P+](CCCCCC)(CCCCCC)CCCCCC.N#C[N-]C#N [tetradecyl(trihexyl)phosphonium dicyanamide]")
"N"
>>> category("CC(CC(C)(C)C)CP(=O)([O-])CC(C)CC(C)(C)C.CCCCCCCCCCCCCC[P+](CCCCCC)(CCCCCC)CCCCCC")
"N"
>>> category("CCCCCCCCCCCCCC[P+](CCCCCC)(CCCCCC)CCCCCC.CS(=O)(=O)[O-] [trihexyltetradecylphosphonium methanesulfonate]")
"N"

Ask: Please check the record CCCCCCCCCCCCCC[P+](CCCCCC)(CCCCCC)CCCCCC.[Br-] [tetradecyltrihexylphosphonium bromide] and state if its viscosity is at or above 80 mPa·s.
Reply: Y

---

Details: 363.15 K; 101.33 kPa; Liquid; Vibrating tube method
# mass density listing for each entry below
Numbers only; they are read as kg/m3.

Recorded results for 3 compounds are shown here.
>>> measurement("CCCCCCCCCCCCCC[P+](CCCCCC)(CCCCCC)CCCCCC.[Br-] [tetradecyltrihexylphosphonium bromide]")
915.7
>>> measurement("CC(CC(C)(C)C)CP(=O)([O-])CC(C)CC(C)(C)C.CCCCCCCCCCCCCC[P+](CCCCCC)(CCCCCC)CCCCCC")
847.5
>>> measurement("CCCCCCCCCCCCCC[P+](CCCCCC)(CCCCCC)CCCCCC.[Cl-] [trihexyl(tetradecyl)phosphonium chloride]")
852.3

Ask: Look up and report measured mass density for this entry: CCCCCCCCCC(=O)[O-].CCCCCCCCCCCCCC[P+](CCCCCC)(CCCCCC)CCCCCC [trihexyltetradecylphosphonium decanoate]
Reply: 841.3

Ask: Look up and report measured mass density for this entry: CCCCCCCCCCCCCC[P+](CCCCCC)(CCCCCC)CCCCCC.CS(=O)(=O)[O-] [trihexyltetradecylphosphonium methanesulfonate]
Reply: 889.4

Ask: Look up and report measured mass density for this entry: CCCCCCCCCCCCCC[P+](CCCCCC)(CCCCCC)CCCCCC.N#C[N-]C#N [tetradecyl(trihexyl)phosphonium dicyanamide]
Reply: 862.6

---

Settings: 303.15 K; 101.33 kPa; Liquid; Concentric cylinders viscometry
# viscosity listing for each entry below
Numbers only; they are read as mPa·s.

Recorded results for 2 compounds are shown here.
>>> measurement("CCCCCCCCCCCCCC[P+](CCCCCC)(CCCCCC)CCCCCC.[Cl-] [trihexyl(tetradecyl)phosphonium chloride]")
1890.3
>>> measurement("CCCCCCCCCCCCCC[P+](CCCCCC)(CCCCCC)CCCCCC.[Br-] [tetradecyltrihexylphosphonium bromide]")
2065.2

Ask: Look up and report measured viscosity for this entry: CCCCCCCCCCCCCC[P+](CCCCCC)(CCCCCC)CCCCCC.CS(=O)(=O)[O-] [trihexyltetradecylphosphonium methanesulfonate]
Reply: 962.83

Ask: Look up and report measured viscosity for this entry: CCCCCCCCCC(=O)[O-].CCCCCCCCCCCCCC[P+](CCCCCC)(CCCCCC)CCCCCC [trihexyltetradecylphosphonium decanoate]
Reply: 352.09

Ask: Look up and report measured viscosity for this entry: CCCCCCCCCCCCCC[P+](CCCCCC)(CCCCCC)CCCCCC.O=S(=O)([N-]S(=O)(=O)C(F)(F)F)C(F)(F)F
Reply: 254.24

Ask: Look up and report measured viscosity for this entry: CCCCCCCCCCCCCC[P+](CCCCCC)(CCCCCC)CCCCCC.N#C[N-]C#N [tetradecyl(trihexyl)phosphonium dicyanamide]
Reply: 329.68

Ask: Look up and report measured viscosity for this entry: CC(CC(C)(C)C)CP(=O)([O-])CC(C)CC(C)(C)C.CCCCCCCCCCCCCC[P+](CCCCCC)(CCCCCC)CCCCCC
Reply: 1041.5
